Counter-ions that a name gives are not always drawn.
The listing below reports IC50 for molecules tested on Cytochrome P450 2C9 (Homo sapiens, UniProt P11712).
Sequence (P11712 whole entry): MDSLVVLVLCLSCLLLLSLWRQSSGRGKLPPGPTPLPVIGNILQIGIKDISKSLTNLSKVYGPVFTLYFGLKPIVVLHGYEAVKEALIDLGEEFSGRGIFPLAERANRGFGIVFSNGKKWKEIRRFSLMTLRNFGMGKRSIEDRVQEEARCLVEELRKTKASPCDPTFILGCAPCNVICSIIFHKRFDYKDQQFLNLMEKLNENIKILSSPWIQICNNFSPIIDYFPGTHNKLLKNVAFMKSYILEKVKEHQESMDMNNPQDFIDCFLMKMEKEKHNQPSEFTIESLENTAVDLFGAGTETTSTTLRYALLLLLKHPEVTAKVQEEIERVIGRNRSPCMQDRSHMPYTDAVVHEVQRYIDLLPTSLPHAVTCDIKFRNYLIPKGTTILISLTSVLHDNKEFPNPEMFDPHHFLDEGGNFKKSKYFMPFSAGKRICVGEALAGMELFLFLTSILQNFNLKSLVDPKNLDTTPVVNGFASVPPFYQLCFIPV

1) COc1ccc(CCN2CCC(Nc3nc4ccccc4n3Cc3ccc(F)cc3)CC2)cc1: > 30 µM

Item Fc1ccc([C@@H]2CCNC[C@H]2COc2ccc3c(c2)OCO3)cc1 [PAROXETINE HYDROCHLORIDE] was tested on Cytochrome P450 2C9 (Homo sapiens, UniProt P11712); the reported IC50 is > 30 µM

Let me check: CCCSc1ccc2nc(NC(=O)OC)[nH]c2c1 , system Cytochrome P450 2C9 (Homo sapiens, UniProt P11712), measured IC50 is > 30 µM

Known value: Cytochrome P450 2C9 (Homo sapiens, UniProt P11712) IC50 of the molecule Cc1ccccc1C(OCCN(C)C)c1ccccc1 (stereo unspecified) equals > 30 µM

Observed IC50, Cytochrome P450 2C9 (Homo sapiens, UniProt P11712), Clc1ccccc1C(c1ccccc1)(c1ccccc1)n1ccnc1 : 0.136 µM

Entry Cc1c(OCC(F)(F)F)ccnc1C[S+]([O-])c1nc2ccccc2[nH]1 (stereo unspecified) , Cytochrome P450 2C9 (Homo sapiens, UniProt P11712) data, IC50 value: 19.2 µM
